Source: ChEMBL document CHEMBL1201862

Tested on: MDA-MB-435
EXPERIMENTAL_DETAILS: NCI tumour cell line growth inhibition, 48 h
Activity calls are given as the source filed them. No stated cut-off is given here; in the data, active = GI50 up to about 1.1 µM and inactive = higher.
Possible outcomes: yes = active, no = inactive

1) O=C(O)c1ccccc1-c1ccccc1C(=O)Nc1ccc2c(c1)Cc1cc(F)ccc1-2 | no
2) CC(=O)NCCCCN(CCCNC(C)=O)C(=O)OCc1ccccc1 | no
3) COc1cc2c(cc1O)CC[C@@H]1C2CC[C@@]2(C)C1CC[C@@H]2O (stereo not given in full) | yes
4) CC(C)N1CCN(c2ccncc2S(=O)(=O)N2CCCCC2)CC1 | no
5) COC(=O)[C@@H]1c2cc3c(c(O)c2[C@@H](OC2OC(C)C(OC)C(C)(OC)C2OC)C[C@]1(C)O)C(=O)c1c(O)cc2c(c1C3=O)O[C@H]1O[C@]2(C)[C@H](O)[C@@H](N(C)C)[C@@H]1O (stereo not given in full) | yes

###

Measured GI50 of individual entries
System: COLO 205
EXPERIMENTAL_DETAILS: NCI tumour cell line growth inhibition, 48 h
The source made the active and inactive calls. Cut-off read from the data, not from the text of the source: active = GI50 up to about 1.1 µM and inactive = higher. Starred links: 1 amine or outer side, 2 acyl side, 3 side chain; linkers in the order of their positions; H or OH if unused. Positions of bridges follow the written chain, without caps; N, C: chain ends. Non-standard residues stand in square brackets, D forms with d. Residues, ends and D or L forms follow the SMILES beside them. ξ: configuration not given here. X11 = CCC(C)C(N[*:1])C(O)CC(=O)O[C@H](C(=O)C(C)C(=O)[*:2])C(C)C; X10 = O=C([C@@H]1CC(O)CN1[*:1])[*:2]; NMeY = CN[C@@H](Cc1ccc(O)cc1)C(=O)O; ξNMeL = CNC(CC(C)C)C(=O)O; ξT = CC(O)C(N)C(=O)O
RESULT_TYPE: GI50

1. CC(=O)N1C/C(=C\c2ccccc2)C(=O)/C(=C/c2ccccc2)C1 | 17.6 µM (inactive)
2. COc1ccc(C(=O)O)c(Cc2cccc3ccccc23)c1 | > 100 µM (inactive)
3. CCC(=O)OC1CCn2c1nc1c2C(=O)C(C)=C(NC(C)=O)C1=O (centres undefined) | 3.52 µM (inactive)
4. O=C(c1cccs1)N(C(=S)N1CCN(c2ccccc2)CC1)c1ccccc1 | > 100 µM (inactive)
5. C[C@@H]1O[C@]2(O)[C@@H]3CCCN3S(=O)(=O)CCN2C1=O | > 100 µM (inactive)
6. CCOC(=O)c1c2ccc(/C=C/c3ccccn3)ccc-2c(C(=O)OCC)c1N | > 100 µM (inactive)
7. COc1cc2c(cc1O)CC[C@@H]1C2CC[C@@]2(C)C1CC[C@@H]2O (some centres undefined) | 36.7 µM (inactive)
8. CCOC(=O)/C(C(N)=O)=C(O)/C(O)=C/C(=O)c1ccc(Cl)cc1 | 17.8 µM (inactive)
9. COc1cc([C@@H]2c3cc4c(cc3[C@@H](NCc3ccccc3)C3COC(=O)[C@@H]32)OCO4)cc(OC)c1O (some centres undefined) | 27.2 µM (inactive)
10. O=C(O)CCCc1ccc2ccc3ccccc3c2c1 | 40.8 µM (inactive)
11. C/C(CC(=O)Nc1ccccc1[N+](=O)[O-])=N\NC(N)=O | > 100 µM (inactive)
12. CCOC(=O)/C(=C\c1ccc(F)cc1)C(C)=O | 36 µM (inactive)
13. O=[N+]([O-])c1ccc(Sc2c3ccccc3nc3cc(Cl)ccc23)cc1 | > 10 µM (inactive)
14. O=c1[nH]c2cc(C(F)(F)F)ccc2nc1C(F)(F)F | 30.9 µM (inactive)
15. Cc1ccc(C(=O)Cn2c(C(=O)/C=C/c3cccs3)nc3ccccc32)cc1 | 41.1 µM (inactive)
16. COc1c(C(=O)CC2c3c(cc4oc(C)cc(=O)c4c3OC)OC(=N)C2c2nc3ccccc3[nH]2)c(O)c(OC)c2occc12 (centres undefined) | > 100 µM (inactive)
17. CC[P+](C)(C)c1ccccc1 | > 100 µM (inactive)
18. O=C(O)c1ccccc1-c1ccccc1C(=O)Nc1ccc2c(c1)Cc1cc(F)ccc1-2 | 17.4 µM (inactive)
19. CC1(C)OC[C@@H](O)[C@H](Br)CO1 | > 100 µM (inactive)
20. Cc1ccc2c(O)cc(-c3ccccc3)nc2n1 | 0.0378 µM (active)
21. CNC(=S)N/N=C1\C(=O)N(CN2CCOCC2)c2ccc([N+](=O)[O-])cc21 | 26.9 µM (inactive)
22. C=C(Br)N(CC)CC | > 100 µM (inactive)
23. N#Cc1c(C(N)=O)ncn1Cc1ccccc1 | > 100 µM (inactive)
24. O=C(O/N=C1/CCC/C1=C\c1ccccc1)c1ccccc1 | > 100 µM (inactive)
25. COc1ccccc1-c1nc(O)c2ccccc2n1 | > 100 µM (inactive)
26. Clc1ccc(C2=C(c3ccccc3)C(c3ccc(Cl)cc3)N3C(=N[C@H]4CCCC[C@@H]43)N2)cc1 (some centres undefined) | 6.64 µM (inactive)
27. CCC(C)C1NC(=O)C(NC(=O)C(CC(C)C)N(C)C(=O)[C@@H]2CC(O)CN2)C(C)OC(=O)[C@H](Cc2ccc(OC)cc2)N(C)C(=O)[C@@H]2CCCN2C(=O)[C@H](CC(C)C)NC(=O)C(C)C(=O)[C@H](C(C)C)OC(=O)CC1O (some centres undefined) (H-[X10][ξNMeL][ξT][X11]LP[NMeY](Me); ester 3-C) | 0.00309 µM (active)
28. CC(C)(C)c1ccc(-n2c3nc(=O)n(-c4ccccc4CO)c(=O)c-3cc3ccccc32)cc1 | 46.5 µM (inactive)
29. OCCOCCN1CCN(c2nc(N3CCCC3)c3nc(Cl)c(NCc4ccccc4)nc3n2)CC1 | 7.35 µM (inactive)
30. CCn1c(-c2ccc(C)cc2)cs/c1=N\C(P(=O)(O)O)P(=O)(O)O | > 100 µM (inactive)
31. Cc1ccc(Nc2nnc(-c3ccc4c(c3)OCO4)o2)c(C)c1 | > 100 µM (inactive)
32. COc1cc2cnc3c4cc(OCc5ccccc5)ccc4ccc3c2cc1OC | 18.5 µM (inactive)
33. CCOC(=O)C1=C(c2ccccc2)N(C)c2ccccc2S1 | 31.3 µM (inactive)
34. O=C1NC(=O)/C(=C/c2ccc(S(=O)(=O)N/N=C\C(O)C(O)C(O)C(O)CO)cc2)N1 (centres undefined) | > 100 µM (inactive)
